# assayed system: human NK1 receptor (Homo sapiens, UniProt P25103)
# Construct: membrane suspension
# Sequence (P25103 whole entry): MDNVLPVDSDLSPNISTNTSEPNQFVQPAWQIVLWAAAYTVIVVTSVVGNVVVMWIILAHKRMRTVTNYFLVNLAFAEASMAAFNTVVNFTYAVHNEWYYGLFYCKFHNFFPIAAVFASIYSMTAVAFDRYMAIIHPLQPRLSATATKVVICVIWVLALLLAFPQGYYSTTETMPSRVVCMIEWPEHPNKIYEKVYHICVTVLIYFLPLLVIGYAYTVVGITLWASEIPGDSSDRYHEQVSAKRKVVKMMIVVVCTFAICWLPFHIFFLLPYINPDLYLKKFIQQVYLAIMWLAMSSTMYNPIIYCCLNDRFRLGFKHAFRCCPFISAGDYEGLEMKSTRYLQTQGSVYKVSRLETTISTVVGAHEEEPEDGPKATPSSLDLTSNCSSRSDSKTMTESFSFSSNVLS
# assay text: Affinity for the NK1 receptor, [3H]substance P displacement binding assay
# experimental context: affinity to the NK-1 receptor; human NK1 receptors in CHO cells; [3H]substance P 0.6 nM; 60 min at room temperature
reported metric: Ki (µM)

* Cc1ccccc1Oc1nc(OCCN2CCOCC2)ncc1C(=O)N(C)Cc1cc(C(F)(F)F)cc(C(F)(F)F)c1 | 0.00468
* CSc1ncc(C(=O)N(C)Cc2cc(C(F)(F)F)cc(C(F)(F)F)c2)c(Oc2ccccc2)n1 | 0.0977
* Cc1ccccc1Oc1nc(-c2ccccc2)ncc1N(C)C(=O)C(C)(C)c1cc(C(F)(F)F)cc(C(F)(F)F)c1 | 0.0324
* Cc1ccccc1Oc1nc(N2CCN(C)CC2)ncc1N(C)C(=O)C(C)(C)c1cc(C(F)(F)F)cc(C(F)(F)F)c1 | 0.000912
* Cc1ccccc1Oc1nc(N2CCSCC2)ncc1C(=O)N(C)Cc1cc(C(F)(F)F)cc(C(F)(F)F)c1 | 0.02
* Cc1cc(C)cc(CN(C)C(=O)c2cnc(N3CCN(C)CC3)nc2Oc2ccccc2C)c1 | 0.0282
* CN(C)CCCOc1ncc(N(C)C(=O)C(C)(C)c2cc(C(F)(F)F)cc(C(F)(F)F)c2)c(Oc2ccc(F)cc2)n1 | 0.00955
* Cc1ccccc1Oc1nc(-c2ccncc2)ncc1C(=O)N(C)Cc1cc(C(F)(F)F)cc(C(F)(F)F)c1 | 0.0162
* Cc1ccccc1Oc1nc(N2CCN(C)CC2)ncc1C(=O)N(C)Cc1cc(C(F)(F)F)cc(C(F)(F)F)c1 | 0.00288
* COc1cc(CN(C)C(=O)c2cnc(N3CCN(C)CC3)nc2Oc2ccccc2C)cc(OC)c1 | 0.17
* Cc1ccccc1Oc1nc(N2CCN(C)CC2)ncc1C(=O)NCc1cc(Cl)cc(Cl)c1 | 0.195
* Cc1ccccc1Oc1nc(OCCN2CCOCC2)ncc1N(C)C(=O)C(C)(C)c1cc(C(F)(F)F)cc(C(F)(F)F)c1 | 0.000794
* CSc1ncc(C(=O)N(C)Cc2cc(C(F)(F)F)cc(C(F)(F)F)c2)c(Oc2ccccc2C)n1 | 0.0417
